Reference source: patent US11130769B2

# target-desc: MCL-1 (Homo sapiens (Human), UniProt Q07820)
# Sequence (Q07820 whole entry): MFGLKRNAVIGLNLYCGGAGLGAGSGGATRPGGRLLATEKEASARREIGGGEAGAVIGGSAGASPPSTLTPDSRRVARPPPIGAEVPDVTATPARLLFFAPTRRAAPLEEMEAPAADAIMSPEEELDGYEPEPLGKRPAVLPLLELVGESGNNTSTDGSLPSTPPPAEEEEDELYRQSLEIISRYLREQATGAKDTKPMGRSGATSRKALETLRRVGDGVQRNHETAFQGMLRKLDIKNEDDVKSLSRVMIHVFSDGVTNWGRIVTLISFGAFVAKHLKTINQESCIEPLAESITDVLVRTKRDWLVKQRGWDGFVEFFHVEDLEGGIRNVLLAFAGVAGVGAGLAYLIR
# test-details: Cell free Mcl-1:Bim affinity assay (fluorescence polarization competition)
# Assay type: binding
# condition-context: 15 nM MCL-1, 5 nM FITC-Bim, 1 hour at room temperature; class symbols; read-out: BIM_Ki
measure: Ki

CC(C)N1CCN(CC2(O)/C=C/COC(C)(C)C(=O)NS(=O)(=O)c3ccc4c(c3)N(C[C@@H]3CC[C@H]32)C[C@@]2(CCCc3cc(Cl)ccc32)CO4)CC1 (some centres unmarked) :: 1 to 100 nM
C[C@H]1C(=O)NS(=O)(=O)c2ccc3c(c2)N(C[C@@H]2CC[C@H]2COCC(=O)N1C)C[C@@]1(CCCc2cc(Cl)ccc21)CO3 :: 1 to 100 nM
COC(=O)N[C@@H]1/C=C/COC(C)(C)C(=O)NS(=O)(=O)c2ccc3c(c2)N(C[C@@H]2CC[C@H]21)C[C@@]1(CCCc2cc(Cl)ccc21)CO3 :: 1 to 100 nM

Reported Ki, compound "CN[C@H]1CCN(C(=O)O[C@H]2/C=C/COC(C)(C)C(=O)NS(=O)(=O)c3ccc4c(c3)N(C[C@@H]3CC[C@H]32)C[C@@]2(CCCc3cc(Cl)ccc32)CO4)C1" : ____
< 1 nM

What measured Ki goes with "CO[C@@H]1/C=C/CO[C@@H](C)C(=O)NS(=O)(=O)c2ccc3c(c2)N(C[C@@H]2CC[C@H]21)C[C@@]1(CCCc2cc(Cl)ccc21)CO3" ?
< 1 nM

Name the reported Ki value associated with the compound "CC1(C)OC/C=C/[C@H](OC(=O)N2CC(F)C2)[C@@H]2CC[C@H]2CN2C[C@@]3(CCCc4cc(Cl)ccc43)COc3ccc(cc32)S(=O)(=O)NC1=O"
< 1 nM

Name the reported Ki value associated with the compound "CNCCNC(=O)O[C@H]1/C=C/COC(C)(C)C(=O)NS(=O)(=O)c2ccc3c(c2)N(C[C@@H]2CC[C@H]21)C[C@@]1(CCCc2cc(Cl)ccc21)CO3"
< 1 nM

For "CN(C(=O)O[C@H]1/C=C/COC(C)(C)C(=O)NS(=O)(=O)c2ccc3c(c2)N(C[C@@H]2CC[C@H]21)C[C@@]1(CCCc2cc(Cl)ccc21)CO3)[C@H]1CCOC1" , what is its reported Ki?
< 1 nM

---

# target-desc: MCL-1 (Homo sapiens (Human), UniProt Q07820)
# test-details: Cell free Mcl-1:Bim affinity assay (fluorescence polarization competition)
# Format: binding
# condition-context: 15 nM MCL-1, 5 nM FITC-Bim, 1 hour at room temperature; class symbols; read-out: BIM_Ki
pKi: −log10 of the molar value.
Reported pKi is given for each of the following compounds.

Example compounds with recorded pKi:
CN1CCN(CCNC(=O)O[C@H]2/C=C/COC(C)(C)C(=O)NS(=O)(=O)c3ccc4c(c3)N(C[C@@H]3CC[C@H]32)C[C@@]2(CCCc3cc(Cl)ccc32)CO4)CC1 :: > 9.00
CN(C)C(=O)O[C@H]1/C=C/CN(C)C(C)(C)C(=O)NS(=O)(=O)c2ccc3c(c2)N(C[C@@H]2CC[C@H]21)C[C@@]1(CCCc2cc(Cl)ccc21)CO3 :: > 9.00
CN(C(=O)O[C@H]1/C=C/COC2(CCC2)C(=O)NS(=O)(=O)c2ccc3c(c2)N(C[C@@H]2CC[C@H]21)C[C@@]1(CCCc2cc(Cl)ccc21)CO3)C1CCOCC1 :: > 9.00
CO[C@@H]1/C=C/CN[C@H](C)C(=O)NS(=O)(=O)c2ccc3c(c2)N(C[C@@H]2CC[C@H]21)C[C@@]1(CCCc2cc(Cl)ccc21)CO3 :: 7.00 to 9.00

Could you share which pKi value was measured for "CC1(C)OC/C=C/[C@H](OCCN2CCC2)[C@@H]2CC[C@H]2CN2C[C@@]3(CCCc4cc(Cl)ccc43)COc3ccc(cc32)S(=O)(=O)NC1=O" ?
> 9.00

---

# pKi per entry
# target-desc: MCL-1 (Homo sapiens (Human))
# test-details: Cell free Mcl-1:Bim affinity assay (fluorescence polarization competition)
# Format: binding
# condition-context: 15 nM MCL-1, 5 nM FITC-Bim, 1 hour at room temperature; class symbols; read-out: BIM_Ki
pKi: −log10 of the molar value.

// known answers, use as guide
CN(C)CCN(C)C(=O)O[C@H]1/C=C/COC(C)(C)C(=O)NS(=O)(=O)c2ccc3c(c2)N(C[C@@H]2CC[C@H]21)C[C@@]1(CCCc2cc(Cl)ccc21)CO3 :: > 9.00
CO[C@@H]1/C=C/CN(C)CC2(CCC2)C(=O)NS(=O)(=O)c2ccc3c(c2)N(C[C@@H]2CC[C@H]21)C[C@@]1(CCCc2cc(Cl)ccc21)CO3 :: 7.00 to 9.00
CO[C@@H]1/C=C/CN(C)[C@@H](C(C)C)C(=O)NS(=O)(=O)c2ccc3c(c2)N(C[C@@H]2CC[C@H]21)C[C@@]1(CCCc2cc(Cl)ccc21)CO3 :: 7.00 to 9.00

Sample "COC1CN(C(=O)CO[C@H]2/C=C/COC(C)(C)C(=O)NS(=O)(=O)c3ccc4c(c3)N(C[C@@H]3CC[C@H]32)C[C@@]2(CCCc3cc(Cl)ccc32)CO4)C1" — what was its pKi?
> 9.00

Query: pKi; subject: "CO[C@@H]1/C=C/CCNC(=O)NS(=O)(=O)c2ccc3c(c2)N(C[C@@H]2CC[C@H]21)C[C@@]1(CCCc2cc(Cl)ccc21)CO3"
7.00 to 9.00

---

# target-desc: MCL-1 (Homo sapiens (Human), UniProt Q07820)
# test-details: Cell free Mcl-1:Bim affinity assay (fluorescence polarization competition)
# Type: binding
# condition-context: 15 nM MCL-1, 5 nM FITC-Bim, 1 hour at room temperature; class symbols; read-out: BIM_Ki
measure: Ki

Recorded results for 8 molecules are shown here.
O=C(N[C@H]1CCOC1)O[C@H]1/C=C/COC2(CCC2)C(=O)NS(=O)(=O)c2ccc3c(c2)N(C[C@@H]2CC[C@H]21)C[C@@]1(CCCc2cc(Cl)ccc21)CO3 :: < 1 nM
CN1CCN(C(=O)O[C@H]2/C=C/COC(C)(C)C(=O)NS(=O)(=O)c3ccc4c(c3)N(C[C@@H]3CC[C@H]32)C[C@@]2(CCCc3cc(Cl)ccc32)CO4)CC1 :: < 1 nM
CO[C@@H]1/C=C/CCC(=O)NS(=O)(=O)c2ccc3c(c2)N(C[C@@H]2CC[C@H]21)C[C@@]1(CCCc2cc(Cl)ccc21)CO3 :: < 1 nM
CO[C@@H]1/C=C/CN(C)C2(CCC2)C(=O)NS(=O)(=O)c2ccc3c(c2)N(C[C@@H]2CC[C@H]21)C[C@@]1(CCCc2cc(Cl)ccc21)CO3 :: 1 to 100 nM
COC1CCN(C(=O)O[C@H]2/C=C/COC(C)(C)C(=O)NS(=O)(=O)c3ccc4c(c3)N(C[C@@H]3CC[C@H]32)C[C@@]2(CCCc3cc(Cl)ccc32)CO4)CC1 :: < 1 nM
CC1(C)OC/C=C/[C@@H](OCCN2CCCC2)[C@@H]2CC[C@H]2CN2C[C@@]3(CCCc4cc(Cl)ccc43)COc3ccc(cc32)S(=O)(=O)NC1=O :: < 1 nM
COC[C@H]1C(=O)NS(=O)(=O)c2ccc3c(c2)N(C[C@@H]2CC[C@H]2[C@H](OC)/C=C/C[C@@H]1C)C[C@@]1(CCCc2cc(Cl)ccc21)CO3 :: < 1 nM
COCCOC[C@H]1C(=O)NS(=O)(=O)c2ccc3c(c2)N(C[C@@H]2CC[C@H]2[C@H](OC)/C=C/C[C@@H]1C)C[C@@]1(CCCc2cc(Cl)ccc21)CO3 :: 1 to 100 nM

State its Ki on MCL-1 (Homo sapiens (Human), UniProt Q07820): "CN1C/C=C/[C@@H](O)[C@@H]2CC[C@H]2CN2C[C@@]3(CCCc4cc(Cl)ccc43)COc3ccc(cc32)S(=O)(=O)NC(=O)C12CCC2"
1 to 100 nM

Any idea what Ki came out for "CN(C(=O)O[C@H]1/C=C/COC2(CCC2)C(=O)NS(=O)(=O)c2ccc3c(c2)N(C[C@@H]2CC[C@H]21)C[C@@]1(CCCc2cc(Cl)ccc21)CO3)C1COC1" on MCL-1 (Homo sapiens (Human), UniProt Q07820)?
< 1 nM

Report Ki for "COC[C@@H]1CCCN1C(=O)O[C@H]1/C=C/COC(C)(C)C(=O)NS(=O)(=O)c2ccc3c(c2)N(C[C@@H]2CC[C@H]21)C[C@@]1(CCCc2cc(Cl)ccc21)CO3" tested on MCL-1 (Homo sapiens (Human), UniProt Q07820).
< 1 nM

---

Below, each entry is listed alongside its reported pIC50.
# System: H929 cells
# test-details: Cell viability assay (H929 10 FBS)
# Format: cell-based
# condition-context: Homo sapiens, NCI-H929, 24 hours, read-out: H929_10FBS IC50
pIC50: −log10 of the molar value.

Examples with their reported pIC50 follow.
CO[C@H]1/C=C/CC[C@H](C)C(=O)NS(=O)(=O)c2ccc3c(c2)N(C[C@@H]2CC[C@H]21)C[C@@]1(CCCc2cc(Cl)ccc21)CO3 :: < 6.00
COC[C@@H]1OC/C=C/[C@@H](OC)[C@@H]2CC[C@H]2CN2C[C@@]3(CCCc4cc(Cl)ccc43)COc3ccc(cc32)S(=O)(=O)NC1=O :: < 6.00
CC(=O)NS(=O)(=O)c1ccc2c(c1)N(Cc1ccccc1)CC1(CCCc3cc(Cl)ccc31)CO2 (stereo not shown) :: < 6.00
O=C(NS(=O)(=O)c1ccc2c(c1)N(CC1CCC1)CC1(CCCc3cc(Cl)ccc31)CO2)N1CCCC1 (stereo not shown) :: < 6.00
CO[C@@H]1/C=C\CN[C@@H](C)C(=O)NS(=O)(=O)c2ccc3c(c2)N(C[C@@H]2CC[C@H]21)C[C@@]1(CCCc2cc(Cl)ccc21)CO3 :: < 6.00
CC1(C)OC/C=C/[C@H](OCC(=O)N2C[C@@H](F)[C@H](F)C2)[C@@H]2CC[C@H]2CN2C[C@@]3(CCCc4cc(Cl)ccc43)COc3ccc(cc32)S(=O)(=O)NC1=O :: > 6.30
CC1(C)OC/C=C/[C@H](OCCN2CC(F)(F)C2)[C@@H]2CC[C@H]2CN2C[C@@]3(CCCc4cc(Cl)ccc43)COc3ccc(cc32)S(=O)(=O)NC1=O :: > 6.30
CO[C@@H]1/C=C/CN[C@@H](C(C)C)C(=O)NS(=O)(=O)c2ccc3c(c2)N(C[C@@H]2CC[C@H]21)C[C@@]1(CCCc2cc(Cl)ccc21)CO3 :: < 6.00
CN(C)C(=O)CO[C@H]1/C=C/COC(C)(C)C(=O)NS(=O)(=O)c2ccc3c(c2)N(C[C@@H]2CC[C@H]21)C[C@@]1(CCCc2cc(Cl)ccc21)CO3 :: > 6.30
CC1(C)OC/C=C/[C@H](OCCN2C[C@@H](F)[C@@H](F)C2)[C@@H]2CC[C@H]2CN2C[C@@]3(CCCc4cc(Cl)ccc43)COc3ccc(cc32)S(=O)(=O)NC1=O :: > 6.30

Read the next record carefully.
Name the reported pIC50 value associated with the molecule "CO[C@H]1/C=C/CC[C@@H](C)C(=O)NS(=O)(=O)c2ccc3c(c2)N(C[C@@H]2CC[C@H]21)C[C@@]1(CCCc2cc(Cl)ccc21)CO3"
< 6.00
